System: influenza A/Perth/265/2009 (H1N1pdm09) (H275Y)
Assay type: cell-based, influenza A virus
measured-endpoint: EC50 (nM)
Unit nM implied. Number only.

Prompt: Give its EC50 value. Item: `O=C1c2c(O)c(=O)ccn2N([C@@H]2c3ccc(F)c(F)c3CSc3ccsc32)[C@@H]2COCCN12`
Response: 0.8
